biological target: Histone deacetylase 1 (Homo sapiens, UniProt Q13547); experiment: Inhibition of human recombinant HDAC1 expressed in insect High5 cells using baculovirus expression system using Ac-Lys-Tyr-Lys (epsilon-acetyl)-AMC as substrate incubated for 24 hrs by multilabel plate reader method; set-up: species or system BTI-TN-5B1-4
Sequence (Q13547 whole entry): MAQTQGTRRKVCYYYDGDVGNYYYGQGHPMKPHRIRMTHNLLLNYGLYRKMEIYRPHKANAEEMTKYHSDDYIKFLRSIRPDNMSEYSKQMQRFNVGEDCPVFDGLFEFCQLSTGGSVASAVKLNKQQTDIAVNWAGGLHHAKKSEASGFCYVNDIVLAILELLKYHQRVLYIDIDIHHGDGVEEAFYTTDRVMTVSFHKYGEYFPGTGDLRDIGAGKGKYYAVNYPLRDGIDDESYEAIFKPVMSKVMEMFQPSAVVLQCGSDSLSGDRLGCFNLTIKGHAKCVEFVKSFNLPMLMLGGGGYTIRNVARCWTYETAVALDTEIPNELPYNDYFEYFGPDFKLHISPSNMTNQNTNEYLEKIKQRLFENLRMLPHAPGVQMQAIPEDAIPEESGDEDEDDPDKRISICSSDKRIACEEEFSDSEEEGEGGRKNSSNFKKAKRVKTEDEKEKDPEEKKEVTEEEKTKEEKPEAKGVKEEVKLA
pIC50: −log10 of the molar value.
endpoint_label: pIC50

>>> assay_value("COc1cc2ncnc(Nc3cccc(/C=C/C(=O)NO)c3)c2cc1OCCCN1CCOCC1")
6.80

---

biological target: Histone deacetylase 3 (Homo sapiens); experiment: Inhibition of human recombinant HDAC3 expressed in insect High5 cells using baculovirus expression system using Ac-Lys-Tyr-Lys (epsilon-acetyl)-AMC as substrate incubated for 24 hrs by multilabel plate reader method
Sequence (O15379 whole entry): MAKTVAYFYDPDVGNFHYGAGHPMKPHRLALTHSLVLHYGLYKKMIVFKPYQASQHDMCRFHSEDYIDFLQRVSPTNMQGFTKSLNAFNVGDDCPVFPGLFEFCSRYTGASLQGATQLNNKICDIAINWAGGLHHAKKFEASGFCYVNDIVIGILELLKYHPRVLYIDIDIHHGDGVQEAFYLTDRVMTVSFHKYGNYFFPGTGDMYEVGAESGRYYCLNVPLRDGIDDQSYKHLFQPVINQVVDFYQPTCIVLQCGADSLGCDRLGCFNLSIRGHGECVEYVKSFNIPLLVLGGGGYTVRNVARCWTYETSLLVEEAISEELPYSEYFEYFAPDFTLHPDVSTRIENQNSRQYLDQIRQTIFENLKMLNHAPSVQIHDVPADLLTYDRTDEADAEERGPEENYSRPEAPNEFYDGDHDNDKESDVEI
pIC50: −log10 of the molar value.
endpoint_label: pIC50

>>> assay_value("COc1cc2ncnc(Nc3cccc(/C=C/C(=O)NO)c3)c2cc1OCCCN1CCOCC1")
6.74
